- study_target: the molecule itself
- assay_info: native gel or EMSA; self-association; BN-PAGE and Western blot of proteins purified by affinity chromatography; bands of monomer, dimer and tetramer as percent of total
metric_name: binding result

{"protein": "recombinant human GCDH variant M263V, MBP fusion (enzyme, glutaryl-CoA dehydrogenase (GCDH), human cDNA in pMAL-c2X, patient variant; No cleavage of MBP is described; also called c.787A > G; not shown: MBP, N-terminal, kept) RPEFDWQDPLVLEEQLTTDEILIRDTFRTYCQERLMPRILLANRNEVFHREIISEMGELGVLGPTIKGYGCAGVSSVAYGLLARELERVDSGYRSAMSVQSSLVMHPIYAYGSEEQRQKYLPQLAKGELLGCFGLTEPNSGSDPSSMETRAHYNSSNKSYTLNGTKTWITNSPMADLFVVWARCEDGCIRGFLLEKGMRGLSAPRIQGKFSLRASATGVIIMDGVEVPEENVLPGASSLGGPFGCLNNARYGIAWGVLGASEFCLHTARQYALDRMQFGVPLARNQLIQKKLADMLTEITLGLHACLQLGRLKDQDKAAPEMVSLLKRNNCGKALDIARQARDMLGGNGISDEYHVIRHAMNLEAVNTYEGTHDIHALILGRAITGIQAFTASK", "observed_value": "binds"}

All figures here come from paper PMC10487539.
